Values were extracted from PubChem BioAssay (NCI).

Entries annotated with measured TGI
- Test system: SF-295 CNS
- assay comment: NCI tumour cell line growth inhibition, 48 h

Examples with their reported TGI follow.
compound: CCn1cc(C(=O)O)c(=O)c2cc(F)c(N3CCN(CN4C(=O)/C(=N\c5ncc(Cc6cc(OC)c(OC)c(OC)c6)c(N)n5)c5cc(Cl)ccc54)CC3)cc21
TGI: > 100 µM
--
compound: Nc1nonc1C(=Nc1ccc(F)c(Cl)c1)NO
TGI: > 100 µM
--
compound: O=c1cc(-c2ccccc2)c2ccc(O)c(CN(CCCl)CCCl)c2o1
TGI: 29.7 µM
--
compound: COc1ccc(CC(C)=C(c2ccc(OCCN3CCCCCC3)cc2)c2ccc(OCCN3CCCCCC3)cc2)cc1
TGI: 0.861 µM
--
compound: COc1ccc(CC#C/C=C/C(=O)NCC(C)C)cc1
TGI: > 100 µM
--
compound: O=C(NN1C(=O)C(Cl)C1c1ccc(O)cc1)c1ccccc1O (centres undefined)
TGI: 33.9 µM
--
compound: C[N+](C)(C)CCN(Cc1cccs1)c1ccccn1
TGI: > 100 µM
--
compound: O=C1C(Cl)=C(Cl)C(=O)C2=C1C1c3ccccc3C2c2ccccc21
TGI: > 100 µM

Lookup: Given the compound CN(C)C1C(=O)C(C(=O)NCN2CCCC2)=C(O)C2(O)C(=O)C3=C(O)c4c(O)cccc4C(C)(O)C3CC12 (centres undefined) , write its reported TGI.
Found: > 100 µM

Lookup: Tell me measured TGI for "COc1cc(/C=C/c2cc(/C=C/c3ccc(O)c(OC)c3)n(-c3c(Cl)cccc3Cl)c(=O)n2)ccc1O" please.
Found: 9.52 µM

Lookup: Dear colleague, please send me the reported TGI for COC(=O)/C=C/C1C2C3(CCC(C)C12C)OCCS3 (centres undefined) when you can.
Found: > 100 µM

Lookup: Give TGI for "CCOC(=O)c1csc(NC(=O)CN(C)C)n1"
Found: > 100 µM

Lookup: Please report the measured TGI for "[N-]=[N+]=NCCCn1c2c(c3cc4c(cc3c1=O)OCO4)C(=O)c1ccccc1-2"
Found: > 100 µM
